assay_target: Solute carrier family 2, facilitated glucose transporter member 1 (Homo sapiens)
protocol_description: ST_JUDE_LEISH: Cytotoxicity at 2uM final concentration against transgenic Leishmania Mexicana promastigotes LmGLUT1 that are glucose transport deficient and complemented with the human glucose transporter GLUT1. Activity is measured by DNA content using SYBR green in vitro
Format: functional
measured_attribute: inhibition (%)

INSERT INTO results (compound, measured_attribute, obs_value) VALUES
  ('O=C(CC1CCCCC1)NCC(NCCCNc1cc(=O)c2ccccc2[nH]1)c1cc(Br)cc(Br)c1 (stereo not given)', 'inhibition', 3.89),
  ('O=C(Nc1ccc(-c2csc(-c3nc4ccccc4[nH]3)c2)cc1)Nc1ccsc1', 'inhibition', 1.71),
  ('CCN(CC)CCN(Cc1ccc(-c2ccc(C(F)(F)F)cc2)cc1)C(=O)Cn1cc(Cc2cnn(C)c2)c(=O)nc1/C=C/c1ccc(F)cc1', 'inhibition', 1.22),
  ('Nc1ncc(-c2cccc(OCc3ccccc3)c2)cc1-c1nnc2ccc(Cl)nn12', 'inhibition', 1.7),
  ('O=C1C2C(c3ccc(Cl)c(Cl)c3)N3CC(OCc4ccccc4)CC3(C(=O)O)C2C(=O)N1c1ccc(Br)cc1 (stereo not given)', 'inhibition', 4.62),
  ('O=C(CC(c1ccccc1)c1ccccc1O)N1CCOCC1 (stereo not given)', 'inhibition', 0.4),
  ('CC1CCC2(CC1)NC(N)=NC(=N)N2OCCCCCCCCO (stereo not given)', 'inhibition', 6.99),
  ('CCCCc1nc2nc(N)nc(N)c2cc1CCC', 'inhibition', 1.72),
  ('O=C(NC(c1ccccc1)c1ccc2cccnc2c1O)c1ccccc1 (stereo not given)', 'inhibition', 4.04),
  ('CCCc1cc(Cc2cnc(N)nc2N)cc(CC)c1OC', 'inhibition', 6.06);

====

Each record here notes measured inhibition.
assay_target: Solute carrier family 2, facilitated glucose transporter member 1 (Homo sapiens)
protocol_description: ST_JUDE_LEISH: Cytotoxicity at 2uM final concentration against transgenic Leishmania Mexicana promastigotes LmGLUT1 that are glucose transport deficient and complemented with the human glucose transporter GLUT1. Activity is measured by DNA content using SYBR green in vitro
Format: functional
measured_attribute: inhibition (%)

INSERT INTO measurements (entry_smiles, assay_target, measured_attribute, obs_value) VALUES
  ('Cn1cnc(CCNC(=O)c2cccc(-c3ccc(-c4nc5cc(F)ccc5[nH]4)cc3)c2)c1', 'Solute carrier family 2, facilitated glucose transporter member 1 (Homo sapiens)', 'inhibition', 1.27),
  ('CC(C)c1ccc(Cn2cc(-c3ccncc3)c3cc(OCc4ccccc4)ccc32)cc1', 'Solute carrier family 2, facilitated glucose transporter member 1 (Homo sapiens)', 'inhibition', 0.76),
  ('CN1CCC(N2CCN(Cc3cccc(-c4ccc(-c5nc6cc(F)ccc6[nH]5)cc4)c3)CC2)CC1', 'Solute carrier family 2, facilitated glucose transporter member 1 (Homo sapiens)', 'inhibition', 2.43),
  ('Cc1cc2c(cc1C(F)(F)F)N(C(=O)Nc1ccc(OCCN(C)C)c(C(F)(F)F)c1)CC2', 'Solute carrier family 2, facilitated glucose transporter member 1 (Homo sapiens)', 'inhibition', 2.99),
  ('COc1ccc(CCNc2nc(SCc3ccccc3Cl)nc3ccccc23)cc1OC', 'Solute carrier family 2, facilitated glucose transporter member 1 (Homo sapiens)', 'inhibition', 1.6),
  ('c1ccn2c(Sc3ncnc4sccc34)ncc2c1', 'Solute carrier family 2, facilitated glucose transporter member 1 (Homo sapiens)', 'inhibition', -0.89),
  ('FC(F)(F)c1ccc2[nH]c(-c3ccc(-c4ccc(CNCc5cnn(-c6ccccc6)n5)cc4)s3)nc2c1', 'Solute carrier family 2, facilitated glucose transporter member 1 (Homo sapiens)', 'inhibition', 2.88),
  ('Cn1cncc1C(=O)Nc1ccc(-c2cccc(-c3nc4cc(C(F)(F)F)ccc4[nH]3)c2)cc1', 'Solute carrier family 2, facilitated glucose transporter member 1 (Homo sapiens)', 'inhibition', 1.53),
  ('CCCC(=O)c1cnc2c(I)cccc2c1Nc1ccccc1C', 'Solute carrier family 2, facilitated glucose transporter member 1 (Homo sapiens)', 'inhibition', 3.51),
  ('CCN1CCN(Cc2ccc(-c3ccc(NS(=O)(=O)c4cccc5cccnc45)cc3)cc2)CC1', 'Solute carrier family 2, facilitated glucose transporter member 1 (Homo sapiens)', 'inhibition', 20.6);

====

Each record here notes measured inhibition.
assay_target: Glucose transporter (Leishmania mexicana)
protocol_description: ST_JUDE_LEISH: Cytotoxicity at 2uM final concentration against transgenic Leishmania Mexicana promastigotes LmGT2 that are glucose transport deficient and complemented with the L. Mexicana glucose transporter 2. Activity is measured by DNA content using SYBR green in vitro
Assay type: functional
measured_attribute: inhibition

INSERT INTO assay_data (compound, assay_target, measured_attribute, obs_value) VALUES
  ('CNc1ccc(CNCc2ccc(-c3ccc(-c4nc5cc(C(F)(F)F)ccc5[nH]4)s3)cc2)cc1', 'Glucose transporter (Leishmania mexicana)', 'inhibition', '-0.01%'),
  ('COc1ccccc1C1CCN(C2CCC(NC(=O)/C=C/c3ccc(OC(F)(F)F)cc3)CC2)CC1 (centres undefined)', 'Glucose transporter (Leishmania mexicana)', 'inhibition', '2.36%'),
  ('CC(=O)Nc1cccc(CNCc2ccc(-c3cnc(N4CCCC(c5ccccc5)C4)nc3)cc2)c1 (centres undefined)', 'Glucose transporter (Leishmania mexicana)', 'inhibition', '2.2%'),
  ('O=C(Nc1cccc(CN2CCCN(Cc3cccnc3)CC2)c1)c1cc2ccccc2s1', 'Glucose transporter (Leishmania mexicana)', 'inhibition', '-1.53%'),
  ('CC(C)CNCc1ccc(OCc2cccc(COc3ccc(CNCC(C)C)cc3I)c2)c(I)c1', 'Glucose transporter (Leishmania mexicana)', 'inhibition', '2.23%'),
  ('Clc1ccc(OCCC2CCN(CCCCCCN3CCCCC3)CC2)cc1Cl', 'Glucose transporter (Leishmania mexicana)', 'inhibition', '17%'),
  ('NC(=O)c1cnc2cc(-c3ccncc3)cc(Nc3ccc(NC(=O)C4CCCCC4)cc3)c2c1', 'Glucose transporter (Leishmania mexicana)', 'inhibition', '1.29%'),
  ('CC1(C)N=C(N)N=C(N)N1OCc1ccc2c(c1)OCO2', 'Glucose transporter (Leishmania mexicana)', 'inhibition', '13.4%'),
  ('CN1CCN(CCCN(Cc2ccc(-c3cccc(CNC4CCCC4)c3)cc2)C(=O)/C=C/c2ccccc2)CC1', 'Glucose transporter (Leishmania mexicana)', 'inhibition', '6.94%'),
  ('CCc1cc(OC)c(C(=O)NC2CCN(C[C@H](O)c3ccnc4ccc(OC)cc34)CC2)cc1Br', 'Glucose transporter (Leishmania mexicana)', 'inhibition', '-0.3%'),
  ('Cc1cccc2nc(C3CCN(CC4CCN(C(=O)/C=C/c5ccc(Cl)c(Cl)c5)CC4)CC3)[nH]c12', 'Glucose transporter (Leishmania mexicana)', 'inhibition', '10.6%'),
  ('CCCCc1cc(NCc2ccncc2)nc(Nc2ccccc2)n1', 'Glucose transporter (Leishmania mexicana)', 'inhibition', '4.07%'),
  ('Nc1nc2c(c(=O)[nH]1)CN(S(=O)(=O)c1ccc(C(=O)N[C@@H](CCC(=O)O)C(=O)O)cc1)CC2', 'Glucose transporter (Leishmania mexicana)', 'inhibition', '-1.12%'),
  ('N=C(/N=C(/NCCCCCCN/C(=N\C(=N)Nc1ccc(Cl)cc1)N1CCOCC1)N1CCOCC1)Nc1ccc(Cl)cc1', 'Glucose transporter (Leishmania mexicana)', 'inhibition', '9.37%'),
  ('COc1cccc(CNC(=O)NC2CCN(c3ccnc(Nc4cc(OC)c(OC)c(OC)c4)n3)C2)c1 (centres undefined)', 'Glucose transporter (Leishmania mexicana)', 'inhibition', '2.88%'),
  ('Cc1ccc([S+]([O-])Cc2ccc(Cl)cc2)cc1 (centres undefined)', 'Glucose transporter (Leishmania mexicana)', 'inhibition', '1.2%'),
  ('Cc1ccc(Cn2nc(N3CCNCC3)ccc2=O)cc1NC(=O)Nc1ccc(-c2ccccc2)cc1', 'Glucose transporter (Leishmania mexicana)', 'inhibition', '-1.04%'),
  ('O=C(N[C@H]1CCN(Cc2ccc(OCCCN3CCCCC3)cc2)C1)c1ccc(Oc2ccccc2)cc1', 'Glucose transporter (Leishmania mexicana)', 'inhibition', '13.7%'),
  ('O=c1[nH]nc(-c2ccc(N3CCCC3)c([N+](=O)[O-])c2)c2ccccc12', 'Glucose transporter (Leishmania mexicana)', 'inhibition', '4.21%');

====

Each record here notes measured inhibition.
assay_target: Hexose transporter 1 (Plasmodium falciparum)
protocol_description: ST_JUDE_LEISH: Cytotoxicity at 2uM final concentration against transgenic Leishmania Mexicana promastigotes LmPfHT that are glucose transport deficient and complemented with the Plasmodium falciparum hexose transporter. Activity is measured by DNA content using SYBR green in vitro
Assay type: functional
measured_attribute: inhibition

INSERT INTO measurements (compound, obs_value) VALUES
  ('O=C(Nc1cccc(C(F)(F)F)c1)c1cccc(S(=O)(=O)NCC2CCCN2CC2CCCCC2)c1 (stereo not given)', '3.21%'),
  ('CCCN1CCN(CCCNC(=O)c2cc3c(Cl)nc4ccc(C)cc4c3s2)CC1', '1.08%'),
  ('CCNc1cc(C(=O)N[C@@H](Cc2ccccc2)[C@H](O)CNC2CCC(F)(F)CC2)c(F)c(N2CCCCS2(=O)=O)c1', '-1.47%'),
  ('CN1CCC(Oc2cc(NC(=O)Nc3ccc(-c4ccncc4)c(Cl)c3)ccc2Cl)CC1', '13.7%'),
  ('Nc1nc(N)c(-c2ccccc2)c(=O)[nH]1', '3.54%');
